subject-of-test: T1, hu-IL-36β (human IL-36β, N-terminally truncated active form R5-E157) (human)
T1 chain: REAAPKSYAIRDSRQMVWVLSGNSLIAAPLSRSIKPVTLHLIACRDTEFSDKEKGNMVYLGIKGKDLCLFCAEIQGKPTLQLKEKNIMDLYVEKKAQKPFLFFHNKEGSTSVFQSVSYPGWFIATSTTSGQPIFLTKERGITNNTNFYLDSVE
assay-text: cell-based or functional assay
# IC50, IL-36-stimulated IL-8 secretion by HaCat cells per record follows
property: IC50, IL-36-stimulated IL-8 secretion by HaCat cells (nM)

mAb6_2.8 Fab (Fab, V domains shown, Recombinant Fab with 8xHis tag (Expi293F)) VH: ELQLQESGPGLVKPSETLSLTCTVSGGSITASNYYWGWIRQPPGKGLEWIGSIDYTGSTYYNPSLKSRVTISVDTSKNQFSLKLSSVTAADTAVYYCASGKYYETYLGFDVWGQGTLVTVSS VL: ESVLTQPPSVSGAPGQRVTISCTGSSSNIGAHYDVHWYQQLPGTAPKLLIYGNDNRPSGVPDRFSGSKSGTSASLAITGLQAEDEADYYCQSYDYSLSGYVFGGGTKLTVL :: 0.33
mAb6_2.3 Fab (Fab, V domains shown, Purified Fab (Biacore, HaCat assay)) VH: ELQLQESGPGLVKPSETLSLTCTVSGGSITASNYYWGWIRQPPGKGLEWIGSIDYTGSTYYNTSLKSRVTISVDTSKNQFSLKLSSVTAADTAVYYCATGKYYETYLGFDVWGQGTLVTVSS VL: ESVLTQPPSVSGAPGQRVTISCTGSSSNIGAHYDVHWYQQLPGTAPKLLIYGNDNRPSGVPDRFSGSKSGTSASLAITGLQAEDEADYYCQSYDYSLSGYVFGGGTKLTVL :: 1.31

Measured values drawn from patent US20230235040A1 for this set.
